biological target: human Keap1 Kelch domain (Homo sapiens, UniProt Q14145); construct: human Keap1 Kelch domain (residue 321-609, UniProt Q14145); made in house; host or cells: Escherichia coli BL21 (DE3) pLysS, pRSET A vector; assay: Fluorescence polarization (FP) competition assay, Cy5-Nrf2 peptide probe; format: binding; settings: heterologous competition FP; Keap1 Kelch 14 nM, Cy5-Nrf2 probe 3 nM, 4% DMSO; mean ± SEM
Sequence (Q14145 321-609): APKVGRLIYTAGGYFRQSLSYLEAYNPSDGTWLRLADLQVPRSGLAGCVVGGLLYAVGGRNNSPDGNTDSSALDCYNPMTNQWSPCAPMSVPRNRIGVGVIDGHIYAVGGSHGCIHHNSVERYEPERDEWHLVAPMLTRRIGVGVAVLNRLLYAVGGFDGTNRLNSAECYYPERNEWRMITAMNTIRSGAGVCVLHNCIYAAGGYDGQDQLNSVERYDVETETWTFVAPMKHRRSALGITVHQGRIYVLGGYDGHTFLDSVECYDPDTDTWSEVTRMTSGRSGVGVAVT
Mark Satisfied for Ki under 0.03 µM, Not satisfied if at or over.

Would you please look over these solved cases?
- COMPOUND: "O=C(O)CC(c1ccc2ccc(OCC(=O)NC3C=CCCC3)cc2c1)c1ccc2occc2c1 (stereo not shown)"
  GROUP_LABEL: "Satisfied"
- COMPOUND: "COc1ccc(C(CC(=O)O)c2ccc3ccc(OCC(=O)NC4CCCCCC4)cc3c2)cc1C (stereo not shown)"
  GROUP_LABEL: "Not satisfied"

Q. Hello, is Ki of the following compound strictly smaller than 0.03 µM? CC(C(=O)O)C(c1ccc2c(c1)OCO2)c1ccc2ccc(OCC(=O)NC3CCCCCC3)cc2c1 (stereo not shown)
A. Satisfied

Q. Given the entry COc1ccc(C(CC(=O)O)c2ccc3ccc(OCC(=O)NC4CCCCCC4)cc3c2)c(C)c1 (stereo not shown) , would its reported Ki be below 0.03 µM?
A. Satisfied

Q. A record lists Cc1cc2c(cc1C(CC(=O)O)c1ccc3ccc(OCC(=O)NC4CCCCC4)cc3c1)CCO2 (stereo not shown) . Is its Ki below 0.03 µM?
A. Not satisfied

Q. Please check: Ki for `O=C(O)CCc1ccc2ccc(OCC(=O)Nc3ccccc3)cc2c1` , strictly under 0.03 µM or not?
A. Not satisfied

Q. Is the reported Ki for `O=C(O)CCc1ccc2ccc(OCC(=O)NC3CCCCC3)cc2c1` strictly below 0.03 µM?
A. Not satisfied
